Test system: HepG2
EXPERIMENTAL_DETAILS: cytotoxicity call (relative viability < 0.9)
RECORDED_CONDITIONS: 10 µM
Out of some 39,000 compounds screened, about 3,300 (8.5%) were called active. The sample holds actives, similar compounds and a random draw of the others, so the mix is not that of the screen.
Outcome (select one): active, inactive

[Q] // return assay outcome for COc1ccc(S(=O)(=O)N(C)C[C@@H]2Oc3ccc(NS(=O)(=O)c4c(C)noc4C)cc3CC(=O)N([C@@H](C)CO)C[C@H]2C)cc1
[A] inactive

[Q] // return assay outcome for CCCNC(=O)C[C@H]1CC[C@@H]2[C@H](COc3ccc(NS(=O)(=O)c4ccccc4C)cc3C(=O)N2C)O1
[A] inactive

[Q] // return assay outcome for CCOC(=O)C(=O)N(C)CC(OC)OC
[A] inactive

[Q] // return assay outcome for O=C(C[C@H]1CC[C@H]2[C@@H](COC[C@@H](O)CN2C(=O)c2ccc(F)cc2)O1)NCCCN1CCOCC1
[A] inactive

[Q] // return assay outcome for C[C@@H]1CN([C@H](C)CO)C(=O)c2cc(C#CCN(C)C)cnc2O[C@@H]1CN(C)C(=O)CCN1CCCCC1
[A] inactive

[Q] // return assay outcome for CCO[C@H]1[C@H]2CC[C@@H]1N(C(=O)N(C)C)CCO2
[A] inactive

[Q] // return assay outcome for CNC[C@@H]1OCCCC[C@@H](C)Oc2ccc(NS(=O)(=O)c3c(C)noc3C)cc2C(=O)N([C@H](C)CO)C[C@@H]1C
[A] inactive

[Q] // return assay outcome for CN1CCN(C(=O)C[C@H]2CC[C@H]3[C@@H](COC[C@H](O)CN3C(=O)C3CC3)O2)CC1
[A] inactive

[Q] // return assay outcome for COc1ccc(S(=O)(=O)Nc2ccc3c(c2)C(=O)N([C@@H](C)CO)C[C@@H](C)[C@H](CN(C)C(=O)c2ccccc2)OCCCC[C@@H](C)O3)cc1
[A] inactive

[Q] // return assay outcome for CN1CCN(C(=O)C[C@H]2CC[C@@H]3[C@H](COC[C@H](O)CN3Cc3ccc4c(c3)OCO4)O2)CC1
[A] inactive

[Q] // return assay outcome for CC(C)NC(=O)Nc1cccc2c1O[C@@H](CN(C)Cc1ccc(C(=O)O)cc1)[C@H](C)CN([C@H](C)CO)C2=O
[A] inactive

[Q] // return assay outcome for C[C@H]1CN([C@@H](C)CO)C(=O)c2cccc(NS(=O)(=O)c3ccc(Cl)cc3)c2O[C@H]1CN(C)Cc1ccc(-c2ccccc2)cc1
[A] inactive

[Q] // return assay outcome for C[C@@H]1CN([C@@H](C)CO)C(=O)c2cc(NC(=O)Cn3cnnn3)ccc2O[C@H]1CN(C)S(=O)(=O)c1ccc(Cl)cc1
[A] inactive

[Q] // return assay outcome for CC(=O)N(C)C[C@H]1Oc2ncc(C#C[C@@H](C)O)cc2C(=O)N([C@H](C)CO)C[C@@H]1C
[A] inactive

[Q] // return assay outcome for COc1ccc(CN(C)C[C@@H]2OCCCC[C@@H](C)Oc3ccc(NC(=O)Nc4ccc(C(F)(F)F)cc4)cc3C(=O)N([C@@H](C)CO)C[C@@H]2C)cc1
[A] active

[Q] // return assay outcome for CCNC(=O)c1cccc(NS(C)(=O)=O)c1
[A] inactive

[Q] // return assay outcome for COc1ccc(S(=O)(=O)Nc2cccc3c2O[C@@H](CN(C)Cc2ccncc2)[C@@H](C)CN([C@H](C)CO)C3=O)cc1
[A] inactive

[Q] // return assay outcome for C[C@@H]1CN([C@H](C)CO)S(=O)(=O)c2ccc(C#Cc3ccc(F)cc3)cc2O[C@@H]1CN(C)S(C)(=O)=O
[A] inactive

[Q] // return assay outcome for C[C@@H]1CN([C@@H](C)CO)S(=O)(=O)c2ccc(C#Cc3ccc(F)cc3)cc2O[C@H]1CN(C)S(C)(=O)=O
[A] inactive

[Q] // return assay outcome for COCC(=O)N1C[C@H](C)[C@@H](OC)CN(C)C(=O)c2ccc(NC(=O)c3ccc(F)cc3)cc2OC[C@H]1C
[A] inactive

[Q] // return assay outcome for Cc1ccc(S(=O)(=O)Nc2ccc3c(c2)CC(=O)N([C@H](C)CO)C[C@@H](C)[C@@H](CN(C)S(=O)(=O)c2c(C)noc2C)O3)cc1
[A] inactive

[Q] // return assay outcome for C[C@H]1CCCCO[C@H](CN(C)S(=O)(=O)c2cccs2)[C@@H](C)CN([C@@H](C)CO)C(=O)c2cc(NS(=O)(=O)c3cn(C)cn3)ccc2O1
[A] inactive

[Q] // return assay outcome for C[C@H]1CCCCO[C@@H](CN(C)Cc2ccncc2)[C@@H](C)CN([C@@H](C)CO)C(=O)c2cc(NC(=O)Nc3ccc(F)cc3)ccc2O1
[A] inactive

[Q] // return assay outcome for C[C@@H]1CN([C@@H](C)CO)S(=O)(=O)c2ccc(Br)cc2O[C@H]1CN(C)Cc1ccccc1F
[A] inactive

[Q] // return assay outcome for C[C@@H](N)CCc1ccc(Br)cc1
[A] inactive

[Q] // return assay outcome for COc1ccc(NC(=O)N(C)C[C@@H]2OCCCC[C@@H](C)Oc3ccc(NC(=O)Cc4ccccc4)cc3C(=O)N([C@H](C)CO)C[C@@H]2C)cc1
[A] inactive

[Q] // return assay outcome for Cc1cc(=O)nc2[nH][nH]c(=S)n12
[A] inactive

[Q] // return assay outcome for C[C@@H]1CN([C@@H](C)CO)C(=O)c2cc(NC(=O)c3ccncc3)ccc2O[C@@H]1CN(C)S(=O)(=O)c1ccc(F)cc1
[A] inactive

[Q] // return assay outcome for C[C@@H]1CN([C@H](C)CO)C(=O)Cc2cc(NS(=O)(=O)c3ccc(F)cc3)ccc2O[C@H]1CN(C)Cc1ccncc1
[A] inactive

[Q] // return assay outcome for C[C@H]1CN([C@@H](C)CO)S(=O)(=O)c2ccc(C#Cc3ccc(F)cc3)cc2O[C@@H]1CN(C)S(C)(=O)=O
[A] active

[Q] // return assay outcome for O=C1O[C@H](c2ccccc2)[C@H](c2ccccc2)N2[C@H]1[C@@H](C(=O)Nc1nc3ccccc3s1)[C@]1(C(=O)Nc3ccc(C#CCCO)cc31)[C@H]2c1ccc(OCCO)cc1
[A] inactive
